# method_description: soluble on expression in E. coli; label from the status in PepcDB or PDB records
endpoint_label: soluble on expression in E. coli

>>> value_measured("MKSDDLERLEESQEMQQLIHAAKEQYEQEKSVHPPVAYAAFAQNLRERQKDGKMKAKQEPPERETFEVKGGKRSGISPWWLVAACLLGGIIGYGISTTSDRQEAGLERLAVADTVIVVRERVDTVYREVEVPSQPLVASRSTVKSKSTGLTKEHVKQSRKAVQKAEPAFISIEFLQQQQNLPDPNSECYAANGMTVAEGNYPFHLLATVPCK")
"not soluble"
>>> value_measured("MDKLKVAELFAGVGGFRLGLENTKEKIFDVTWANQWEPSKKIQHAFDCYNSRFITGEHVNKDIALISDEEIANTKADMVVGGFPCQDYSVARSLSGELGIQGKKGVLFWQIIRFIQNTYPKYLLLENVDRLLKSPSSQRGRDFGVMLSTLNELGYNVEWRVINAADYGNAQRRRRVFIFGYKQDLEHHHHHH")
"soluble"
>>> value_measured("MGSDKIHHHHHHMKSFVIEDEFWSLFPNAKIGVVICHSIDNSIKDENQYKDMISNSEEEALSYLKNEEFSSNEVIKVWREAFQKFKTKKGARSSIEALLKRVHKGNHIGTINPLVDIYNSISLRYAMPCGGEDIDAFAGDIRLTKAVGNESFVTLGTDKNEPPYEGEIVYKDNEGAICRCFNWRESVRTMLTENTKNAFLCIELIDETRVKEFEDALDTLAKTVQDNLGGNCKISTLDINNKSVVID")
"not soluble"
>>> value_measured("MSVSRYPVAIAGAGPAGSALALALQAQGVEALLLDRPLAQPFRIGESATPDVAGLLERLGAGHALDGQPGYHGNLSLWGSESPRLDHFLYRGRGHGWHLDRAGFDHALRQEAMARGVAVLGESGVDAIAPAAGGWRLRVRGLGEVEARVVVDAGGRRSPLAARLGISRCRLDRLQALACRVDGPGQLSGYSLVESAPYGWWYAAALPDGRALATLMTDQDLARELGLEHPANFLAAWRATRLLSERLPPPQRIDAAHAFAAHSGCVARAAGPGWICVGDALMGLDPLTSSGIACALGDALAAAPAIVAMLDGELAPARAYAKRADDCFRRYLAERRRHYRQENRWPEQPFWQRRAFSPAALAVPALEHHHHHH")
"not soluble"
>>> value_measured("GPGSMNPATKDVASAEEESPVVCTAKQYIFDLHSYAWKESDCLIRIPRPHKGMGHGGMRVCYAVEDVDEEGAGTPMVAKMFRRNISNVVEKDYFNEGAAQCMCEEFANNFNRIHLTNIRKPNISFLQCYVVRIPRDSIPAASQRKRTGFFSYKTQDTGEVMFVMEPMLSGKFTKYNSNYGETYREDKKAALTSSEARRRTEIFEAAETFSHFTLVESGGSMLVCDLQGVNDFFTDPQIHTEDGKGLGMGNMGQEGIDKWIEKHECNDICRALGLQPLLGAVPSSTACAREENMYLGLRAQLQSQNPVRLRDLVPLTKPLEEMTEAERIEYALKVSRLTD")
"soluble"
>>> value_measured("MGSDKIHHHHHHMSKNVLIVSASPRKGGNSDLLCDQFIQGVLESKNQVEKIFLKDKDINYCTGCGACYEKEANCSQTDDMGEILEKMIGADVIVLATPVYFYTMNAQMKTMIDRTCSRYTEICDKDFYFIVTAADENVADMERTIEGFRGFTSCLNGSKEKGIVYGVGAWNVGDIKGSKAMKQAYEMGKLA")
"not soluble"
>>> value_measured("GSHMSLFDFFKNKGSAATATDRLKLILAKERTLNLPYMEEMRKEIIAVIQKYTKSSDIHFKTLDSNQSVETIEVEIILPR")
"soluble"

Values from the DeepSol protein solubility set
